target: PI3Kγ (Homo sapiens (Human), UniProt P48736); assay: TR-FRET enzymatic activity assay against PI3K isoforms; details: 2×Km ATP, 30 minutes at 25° C.
Sequence (P48736 whole entry, canonical isoform): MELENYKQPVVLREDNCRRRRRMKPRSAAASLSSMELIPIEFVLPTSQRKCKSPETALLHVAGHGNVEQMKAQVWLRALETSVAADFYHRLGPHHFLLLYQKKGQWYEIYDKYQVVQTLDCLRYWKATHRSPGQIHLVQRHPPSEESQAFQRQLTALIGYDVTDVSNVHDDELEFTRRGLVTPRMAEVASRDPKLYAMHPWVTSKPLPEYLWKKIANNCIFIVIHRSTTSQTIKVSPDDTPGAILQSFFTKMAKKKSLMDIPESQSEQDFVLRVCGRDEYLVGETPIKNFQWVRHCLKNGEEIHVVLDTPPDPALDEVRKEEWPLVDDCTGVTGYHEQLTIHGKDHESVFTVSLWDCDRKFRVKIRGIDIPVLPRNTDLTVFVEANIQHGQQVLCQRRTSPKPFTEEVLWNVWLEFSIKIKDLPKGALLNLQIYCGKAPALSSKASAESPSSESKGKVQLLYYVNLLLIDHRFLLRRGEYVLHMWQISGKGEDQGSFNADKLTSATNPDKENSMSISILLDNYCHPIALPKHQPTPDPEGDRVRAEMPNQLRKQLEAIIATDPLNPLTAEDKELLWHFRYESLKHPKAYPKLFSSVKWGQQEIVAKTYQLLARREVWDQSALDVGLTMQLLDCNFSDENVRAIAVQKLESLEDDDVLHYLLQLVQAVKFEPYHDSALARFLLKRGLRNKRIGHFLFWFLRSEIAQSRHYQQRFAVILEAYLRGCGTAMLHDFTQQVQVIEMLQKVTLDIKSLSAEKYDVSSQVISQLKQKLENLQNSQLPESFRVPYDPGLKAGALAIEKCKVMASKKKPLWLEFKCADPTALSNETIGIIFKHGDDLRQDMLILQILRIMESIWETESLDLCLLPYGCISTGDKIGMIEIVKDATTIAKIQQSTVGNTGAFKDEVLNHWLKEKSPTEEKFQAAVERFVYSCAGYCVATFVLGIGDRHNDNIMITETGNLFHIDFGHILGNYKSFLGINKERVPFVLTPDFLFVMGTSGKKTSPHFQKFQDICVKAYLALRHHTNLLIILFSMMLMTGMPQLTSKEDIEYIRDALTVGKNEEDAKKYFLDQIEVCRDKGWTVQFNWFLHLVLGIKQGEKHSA
test readout: IC50 (nM)

Input: Data request, read-out IC50, for N#Cc1c(N)nc(N)nc1N[C@H](c1nc2cccc(Cl)c2c(=O)n1CCCCC(N)=O)C1CC1 [Compound 64]
Output: 110

I: COCCCn1c([C@H](C)Nc2nc(N)nc(N)c2C#N)nc2c(Cl)ccc(Cl)c2c1=O [Compound 107]
II: C[C@H](Nc1ncnc(N)c1C#N)c1nc2cccc(Cl)c2c(=O)n1CCCN [Compound 73]
III: N#Cc1c(N)nc(N)nc1N[C@H](c1nc2c(Cl)cc(F)cc2c(=O)n1[C@H]1C[C@@H](O)C1)C1CC1 [Compound 102]
Input: Put the entries in order of IC50, starting with the largest number. Answer format: the labels, ordered as requested.
Output: II, I, III
(II: 9400 nM, I: 1700 nM, III: 1100 nM)

###

molecular target: PI3Kγ (Homo sapiens (Human), UniProt P48736); test: TR-FRET enzymatic activity assay against PI3K isoforms; conditions: 2×Km ATP, 30 minutes at 25° C.
pIC50: −log10 of the molar value.
test readout: pIC50

Input: Find the recorded pIC50 belonging to `C[C@H](Nc1ncnc(N)c1C#N)c1nc2cccc(Cl)c2c(=O)n1CCCO` and report it.
Output: 5.54

1: C[C@H](Nc1nc(N)nc(N)c1C#N)c1nc2cccc(Cl)c2c(=O)n1Cc1ncc[nH]1
2: CC(=O)NCCCn1c([C@H](C)Nc2ncnc(N)c2C#N)nc2cccc(Cl)c2c1=O
Input: Task for the reader: decide whether 1 or 2 has the larger pIC50. API: response body contains the label of the selected item.
Output: 1

###

biological target: PI3Kδ (Homo sapiens (Human), UniProt O00329); assay: TR-FRET enzymatic activity assay against PI3K isoforms; details: 2×Km ATP, 30 minutes at 25° C.
Sequence (O00329 whole entry, canonical isoform): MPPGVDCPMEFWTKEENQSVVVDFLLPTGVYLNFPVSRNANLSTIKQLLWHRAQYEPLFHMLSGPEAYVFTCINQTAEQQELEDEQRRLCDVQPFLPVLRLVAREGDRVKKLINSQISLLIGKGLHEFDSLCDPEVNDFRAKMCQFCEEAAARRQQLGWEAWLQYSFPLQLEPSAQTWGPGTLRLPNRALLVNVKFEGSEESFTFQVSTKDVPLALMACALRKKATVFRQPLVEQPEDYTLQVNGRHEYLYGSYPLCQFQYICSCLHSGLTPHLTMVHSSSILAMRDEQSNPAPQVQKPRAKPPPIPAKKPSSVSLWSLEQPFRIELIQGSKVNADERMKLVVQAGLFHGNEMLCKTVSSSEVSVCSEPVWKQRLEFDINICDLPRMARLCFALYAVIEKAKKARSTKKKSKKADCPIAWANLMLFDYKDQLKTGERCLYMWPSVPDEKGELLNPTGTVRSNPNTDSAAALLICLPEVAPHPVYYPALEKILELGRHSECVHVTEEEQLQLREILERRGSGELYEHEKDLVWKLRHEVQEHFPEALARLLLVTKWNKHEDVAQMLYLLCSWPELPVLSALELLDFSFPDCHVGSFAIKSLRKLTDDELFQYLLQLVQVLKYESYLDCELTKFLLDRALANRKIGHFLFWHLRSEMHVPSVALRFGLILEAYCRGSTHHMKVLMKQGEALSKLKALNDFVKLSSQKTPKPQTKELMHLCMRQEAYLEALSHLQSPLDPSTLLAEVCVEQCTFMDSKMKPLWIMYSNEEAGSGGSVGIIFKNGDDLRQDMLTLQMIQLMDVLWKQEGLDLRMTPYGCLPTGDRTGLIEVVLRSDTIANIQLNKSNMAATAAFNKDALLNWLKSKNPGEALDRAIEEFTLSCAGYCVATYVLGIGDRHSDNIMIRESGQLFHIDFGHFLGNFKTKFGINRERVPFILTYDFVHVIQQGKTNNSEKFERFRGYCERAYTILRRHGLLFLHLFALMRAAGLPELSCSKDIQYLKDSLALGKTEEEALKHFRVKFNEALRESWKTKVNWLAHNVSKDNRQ
Sequence (P27986 whole entry partner, canonical isoform): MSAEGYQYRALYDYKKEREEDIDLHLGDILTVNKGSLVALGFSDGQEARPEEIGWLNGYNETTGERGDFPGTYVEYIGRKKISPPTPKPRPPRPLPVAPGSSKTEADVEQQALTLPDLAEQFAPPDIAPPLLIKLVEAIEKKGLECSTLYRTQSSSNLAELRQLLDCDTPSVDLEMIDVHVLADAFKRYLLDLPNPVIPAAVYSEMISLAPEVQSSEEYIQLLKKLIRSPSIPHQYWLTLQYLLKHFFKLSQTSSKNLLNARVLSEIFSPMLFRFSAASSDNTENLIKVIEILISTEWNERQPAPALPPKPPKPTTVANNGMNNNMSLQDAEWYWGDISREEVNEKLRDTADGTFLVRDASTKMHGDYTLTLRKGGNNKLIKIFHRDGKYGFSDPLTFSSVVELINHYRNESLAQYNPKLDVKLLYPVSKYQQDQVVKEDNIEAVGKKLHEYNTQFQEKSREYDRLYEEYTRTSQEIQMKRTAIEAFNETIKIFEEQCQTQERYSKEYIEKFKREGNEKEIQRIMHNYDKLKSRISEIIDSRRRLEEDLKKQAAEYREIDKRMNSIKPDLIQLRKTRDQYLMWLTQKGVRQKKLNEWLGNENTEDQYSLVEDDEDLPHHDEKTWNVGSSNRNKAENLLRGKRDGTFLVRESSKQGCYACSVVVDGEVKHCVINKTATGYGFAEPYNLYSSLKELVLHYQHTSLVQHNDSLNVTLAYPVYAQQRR
test readout: IC50 (nM)

Examples with answers:
Input: What IC50 value was documented for this compound, `NCCCn1c([C@@H](Nc2ncnc3[nH]cc(Br)c23)C2CC2)nc2cccc(Cl)c2c1=O` ?
Output: 6

Input: Can you share its IC50? I mean this compound: `COC[C@H](C)n1c([C@H](C)Nc2nc(N)nc(N)c2C#N)nc2cccc(Cl)c2c1=O`
Output: 2

Input: Query: IC50; subject: CC(CCO)n1c([C@H](C)Nc2ncnc(N)c2C#N)nc2cccc(Cl)c2c1=O (stereo partly shown)
Output: 4

a: C[C@H](Nc1ncnc(N)c1C#N)c1nc2cccc(Cl)c2c(=O)n1C[C@H](O)CO
b: NCCCn1c([C@@H](Nc2ncnn3ccnc23)C2CC2)nc2cccc(Cl)c2c1=O
c: NC(=O)CCCCn1c([C@@H](Nc2nc(N)nc(N)c2Cl)C2CC2)nc2cccc(Cl)c2c1=O
d: C[C@H](Nc1nc(N)nc(N)c1Cl)c1nc2cccc(Cl)c2c(=O)n1[C@H]1C[C@@H](O)C1
e: C[C@H](Nc1ncnc(N)c1C#N)c1nc2cccc(Cl)c2c(=O)n1CC1CCNC1 (stereo partly shown)
Input: Arrange these compounds by their IC50, starting with the largest number. Respond with the label ranking, as requested.
Output: a, b, d, c, e
(a: 34 nM, b: 21 nM, d: 14 nM, c: 8 nM, e: 3 nM)

src = patent US11021467B2
